Biological target: PXR (Homo sapiens, UniProt O75469)
Experiment: PXR activation, HepG2 reporter assay
Format: cell-based
Design: host or cells: HepG2
Quantity kind: EC50

Exercise: Recall the recorded EC50 for Cc1[nH]c2ccccc2c1C(c1ccccc1)c1c(C)[nH]c2ccccc12 [BAS451] with PXR (Homo sapiens, UniProt O75469) and state it.
Solution: > 50 µM

###

Give measured pEC50 for each item. Keep answers brief.
Target: PXR (Homo sapiens, UniProt O75469)
Sequence (O75469 1-434): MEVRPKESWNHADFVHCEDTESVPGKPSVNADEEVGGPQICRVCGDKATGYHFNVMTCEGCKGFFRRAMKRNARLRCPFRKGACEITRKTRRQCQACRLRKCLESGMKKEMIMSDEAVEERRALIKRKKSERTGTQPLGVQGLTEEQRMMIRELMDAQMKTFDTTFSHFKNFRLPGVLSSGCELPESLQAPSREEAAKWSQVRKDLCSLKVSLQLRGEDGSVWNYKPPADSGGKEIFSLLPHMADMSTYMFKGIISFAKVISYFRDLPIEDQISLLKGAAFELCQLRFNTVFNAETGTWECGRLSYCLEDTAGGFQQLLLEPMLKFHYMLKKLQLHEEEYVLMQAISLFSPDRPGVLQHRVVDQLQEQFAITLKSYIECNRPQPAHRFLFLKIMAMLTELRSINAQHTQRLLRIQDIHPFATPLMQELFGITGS
Experiment: PXR activation (transactivation) luciferase assay in LS180 cells
Format: cell-based
Parameters: co-transfecting full-length expressing human PXR plasmid (91) and p3A4 luciferase reporter (92) in LS180 or Caco-2 cells; expressed in transfected cells; host or cells: LS180
Worth noting: pEC50 values are minus log10 of concentrations stated in mol/L.

Exercise: Would you kindly share the measured pEC50 for C#CCC(O)(c1ccncc1)c1cc2ccccc2n1S(=O)(=O)c1ccccc1 (centres unmarked) [FKK6] ?
Solution: 6.06

Exercise: Fill in: pEC50 of O=C(c1ccncc1)c1cc2ccccc2n1S(=O)(=O)c1ccccc1 [FKK5] is ___
Solution: 5.77
